// data source = ChEMBL document CHEMBL1143412

- Tested on: Respiratory syncytial virus
- RUN DESCRIPTION: Antiviral activity against RSV RSS infected human Hep2 cells assessed as inhibition of virus-induced cell death after 6 days by XTT assay
- Format: functional, organism-based
- CONDITION LABEL: HEp-2, 144 h
Can you tell me pEC50 for the items I'm about to list?
The read-out pEC50 is expressed as -log10 of concentration in moles per litre.

Entry COc1ccccc1C(=O)NC1N=C(c2ccccc2)c2ccccc2NC1=O (stereo unspecified) , pEC50 reported as 5.52

Entry `O=C(Nc1ccccc1F)N[C@H]1N=C(c2ccccc2)c2ccccc2NC1=O` , pEC50 reported as 6.07

Entry CC(=O)NC1N=C(c2ccccc2)c2ccccc2NC1=O (stereo unspecified) , pEC50 reported as 5.02

Entry `COc1cc([N+](=O)[O-])ccc1C(=O)N[C@H]1N=C(c2ccccc2)c2ccccc2NC1=O` , pEC50 reported as 6.05

Entry `COc1cc(S(C)(=O)=O)ccc1C(=O)N[C@H]1N=C(c2ccccc2)c2ccccc2NC1=O` , pEC50 reported as 6.30

Entry `NC(=O)c1ncn([C@@H]2O[C@H](CO)[C@@H](O)[C@H]2O)n1` , pEC50 reported as 4.94
